Below is a list of entries, each paired with its recorded IC50 value.
- system: α-Glucosidase enzyme (Saccharomyces cerevisiae)
- method description: In-vitro α-glucosidase inhibitory assay (p-NPG substrate)
- applied conditions: read-out: α-Glucosidase Inhibitory Activity, IC50; mean ± s.d. of a triplicate experiment
Give the value in µM but do not write µM after it.

Some molecules with known IC50 results, for comparison:
| molecule | IC50 / µM |
| --- | --- |
| C[C@@H]1O[C@@H](OC[C@H]2O[C@@H](Oc3c(-c4ccc(O)c(O)c4)oc4cc(O)cc(O)c4c3=O)[C@H](O)[C@@H](O)[C@@H]2O)[C@H](O)[C@H](O)[C@H]1O [Compound 1, rutin] | 243 |
| C[C@@H]1O[C@@H](OC[C@H]2O[C@@H](Oc3c(-c4ccc(O)cc4)oc4cc(O)cc(O)c4c3=O)[C@H](O)[C@@H](O)[C@@H]2O)[C@H](O)[C@H](O)[C@H]1O [Compound 2, kaempferol 3-O-rutinoside] | 236 |

**Query** Which IC50 value is on record for C[C@@H]1O[C@@H](OC[C@H]2O[C@@H](Oc3c(-c4ccc(O)cc4)oc4cc(O)cc(O)c4c3=O)[C@H](O)[C@@H](O)[C@H]2O)[C@H](O)[C@H](O)[C@H]1O [Compound 3] ?
**Result** 195

* * *

- method description: Cytotoxicity in MDCK cells by the MTT assay
- applied conditions: dog
test readout: viability at 125 µg/mL (%)
Just the number please, in %, no unit attached.

**Query** Tell me the measured viability at 125 µg/mL of C[C@@H]1O[C@@H](OC[C@H]2O[C@@H](Oc3c(-c4ccc(O)cc4)oc4cc(O)cc(O)c4c3=O)[C@H](O)[C@@H](O)[C@@H]2O)[C@H](O)[C@H](O)[C@H]1O [Compound 2, kaempferol 3-O-rutinoside] , please.
**Result** 78

* * *

- method description: Cytotoxicity in MDCK cells by the MTT assay
- applied conditions: dog
viability at 15.6 µg/mL values for the molecules below.
Your answer is read as %, so omit the unit and give the number.

// below: answered molecules
| molecule | test readout | experimental value |
| --- | --- | --- |
| C[C@@H]1O[C@@H](OC[C@H]2O[C@@H](Oc3c(-c4ccc(O)c(O)c4)oc4cc(O)cc(O)c4c3=O)[C@H](O[C@@H]3OCC(O)(CO)[C@H]3O)[C@@H](O)[C@@H]2O)[C@H](O)[C@H](O)[C@H]1O (some centres unmarked) | viability at 15.6 µg/mL | 95.8 |
| C[C@@H]1O[C@@H](OC[C@H]2O[C@@H](Oc3c(-c4ccc(O)cc4)oc4cc(O)cc(O)c4c3=O)[C@H](O[C@@H]3OCC(O)(CO)[C@H]3O)[C@@H](O)[C@@H]2O)[C@H](O)[C@H](O)[C@H]1O (some centres unmarked) | viability at 15.6 µg/mL | 97 |
| C[C@@H]1O[C@@H](OC[C@H]2O[C@@H](Oc3c(-c4ccc(O)c(O)c4)oc4cc(O)cc(O)c4c3=O)[C@H](O)[C@@H](O)[C@@H]2O)[C@H](O)[C@H](O)[C@H]1O | viability at 15.6 µg/mL | 94.7 |
| C[C@@H]1O[C@@H](OC[C@H]2O[C@@H](Oc3c(-c4ccc(O)cc4)oc4cc(O)cc(O)c4c3=O)[C@H](O)[C@@H](O)[C@@H]2O)[C@H](O)[C@H](O)[C@H]1O [Compound 2, kaempferol 3-O-rutinoside] | viability at 15.6 µg/mL | 92.3 |

**Query** Name the reported viability at 15.6 µg/mL value associated with the molecule "C[C@@H]1O[C@@H](OC[C@H]2O[C@@H](Oc3c(-c4ccc(O)cc4)oc4cc(O)cc(O)c4c3=O)[C@H](O)[C@@H](O)[C@H]2O)[C@H](O)[C@H](O)[C@H]1O"
**Result** 89.7

Origin of the recorded values: paper PMC8701318
